Answer each item with its documented relative integration efficiency (log2).
System: VchCAST RNA-guided transposition machinery (E. coli BL21(DE3) host, lacZ target)
Test Protocol: relative integration efficiency (T-LR orientation) vs wild-type transposon end (log2 (normalized fold change)); transposon end mutated: right end (5 bp flank + 75 bp right end); higher = more efficient transposition
Just the number, please, no unit attached.

I have this sequence here, ACATTTGTTGATACAACCATAAAATGATAATTAATAATTATTTATAATCAGCAACTTACACCCATAAATTGATAATTATCACACCCATAAATTGATATTGCCTCTGATCATAGTCAGACCAACATTG , and I need its recorded relative integration efficiency (log2).
-3.43

Same read-out for ACATTTGTTGATACAACCAAAAAATGATAATTACACCCATAAATTGATAATGATGACACCGAATTTAACTATAACGCTCTGATCATAGTCAGACCAACATTGCTACGACCCGTATTCGCACCGACAC ?
2.11

Moving on to the next sequence: ACATTTGTTGATACAACCATAAAATGATAATTACCCCCATAAATTGATAATTATCCCACCCCATTTAACTATAACGCTCTGATCATAGTCAGACCAACATTGCTACGACCCGTATTCGCACCGACAC
1.82

* * *

Test system: VchCAST RNA-guided transposition machinery (E. coli BL21(DE3) host, lacZ target)
Test Protocol: relative integration efficiency (T-LR orientation) vs wild-type transposon end (log2 (normalized fold change)); transposon end mutated: right end (5 bp flank + 75 bp right end); higher = more efficient transposition
Measure Name: relative integration efficiency (log2)
Respond numerically, and do not add a unit to the figure.

// query relative integration efficiency (log2) value for entry ACATTTGTTGATACAACCATAAAATGATAATTACACAACGAAATTGATAATTATCACACCCATAAATTGATATTGCCTCTGATCATAGTCAGACCAACATTGCTACGACCCGTATTCGCACCGACAC
-3.53

Then this sequence: ACATTTGTTGATACCACCATAAAATGATAATTCCACCCCTAAATTGATAATTATCACACCCAATTTAACTATAACGCTCTGATCATAGTCAGACCAACATTGCTACGACCCGTATTCGCACCGACAC
0.417

Also ACATTTGTTGATACACCCATAAATTGATATTGCCAACCATAAAGTGATATTTATCACAACCATAAGTTGATATTTTCTCTGATCATAGTCAGACCAACATTGCTACGACCCGTATTCGCACCGACAC ?
-0.0145

Now consider ACATTTGTTGATACAACCATAAAATCATAATTCACCCCTAAATTGATAATTATCACACCCACATTTAACTATAACGCTCTGATCATAGTCAGACCAACATTGCTACGACCCGTATTCGCACCGACAC and answer again.
-1.89

Try the sequence ACATTTGTTGATACAACCATAAAATGATAATTACAACCATAAAATGATAATTATCACAACCATAAAATGATAATTACTCTGATCATAGTCAGACCAACATTGCTACGACCCGTATTCGCACCGACAC
-0.536

ACATTTGTTGATACAACCATAAAATGATAATTCCACCCATACATTGATAATTATCACACCCAATTTAACTATAACGCTCTGATCATAGTCAGACCAACATTGCTACGACCCGTATTCGCACCGACAC , same question.
0.785

Follow-up entry: ACATTTGTTGATACAACCATAAAATGATAATTACACCCATAAATTGATAATTATCACACCCATAAATTGATACTCTGATCATAGTCAGACCAACATTGCTACGACCCGTATTCGCACCGACACTGAC
0.201

Same lookup for TGTATTGTTGATACAACCATAAAATGATAATTACACCCATAAATTGATAATTATCACACCCATAAATTGATATTGCCTCTGATCATAGTCAGACCAACATTGCTACGACCCGTATTCGCACCGACAC , please.
0.421

Another sequence to look at: ACATTTGTTGATACAACCATAAAATGATAATTACACCCATAAATTGATAATTATCACACCCATAACGGTCGCGGTAAGAGGATCATAGTCAGACCAACATTGCTACGACCCGTATTCGCACCGACAC
2.14
